The origin of these recorded values is BindingDB's records for doi:10.1073/pnas.83.22.8784.

Test system Alpha-2C adrenergic receptor (Rattus norvegicus), Ki listed for each of the compounds.

query.smiles | assay.system | measurement.qualifier | Ki [nM]
O=C(c1ccc(F)cc1)C1CCN(CCCCn2c(=O)[nH]c3ccccc3c2=O)CC1 | Alpha-2C adrenergic receptor (Rattus norvegicus) | = | 75.9
Cn1c(=O)c2c(ncn2CCN2CCC(C(=O)c3ccc(F)cc3)CC2)n(C)c1=O | Alpha-2C adrenergic receptor (Rattus norvegicus) | = | 417
Cc1nc2sccn2c(=O)c1CCN1CCC(=C(c2ccc(F)cc2)c2ccc(F)cc2)CC1 | Alpha-2C adrenergic receptor (Rattus norvegicus) | = | 631
NC(N)=NN=Cc1c(Cl)cccc1Cl | Alpha-2C adrenergic receptor (Rattus norvegicus) | > | 10000
